The measurements presented in this section are drawn from patent US20040147574A1.

For TβRII kinase (Homo sapiens), measured pIC50 is reported for the entries below.
Entry type: numeric. Quantity: pIC50, the -log10 of concentration in molar units.

Would you please look over these solved cases?
COc1ccc(CCNC(=O)Nc2snc(OCc3cccnc3)c2C(N)=O)cc1OC [Example 6] : 6.12
COc1cccc(CCNC(=O)Nc2snc(OCc3cccnc3)c2C(N)=O)c1 [Example 10] : 5.67
NC(=O)c1c(OCc2cccnc2)nsc1NC(=O)NCCN1CCOCC1 [Example 16] : 6.07

Query :: Look up pIC50 for this molecule: NC(=O)c1c(OCc2cccnc2)nsc1NC(=O)NCCc1ccccc1F [Example 12]
Result :: 5.51
